Data provenance: patent US20120028917A1

Tested on: HCT15
Run Description: Cellular EC50, additional cell lines (Table 6-B)
Format: cell-based, human
Study Conditions: Homo sapiens, HCT-15, Colon, P-gp+
Quantity: EC50

{"Smiles Notation": "CO[C@@H](C(=O)N1Cc2n[nH]c(NC(=O)c3ccc(N4CCN(C)CC4)cc3)c2C1)c1ccccc1", "EC50": "> 1250 nM"}
{"Smiles Notation": "CCN(CCCOc1ccc2c(Nc3cc(CC(=O)Nc4cccc(F)c4)n[nH]3)ncnc2c1)CCOP(=O)(O)O", "EC50": "> 625 nM"}

Please look at the following compound next.
The compound listed as Cc1csc(-c2nnc(Nc3ccc(Oc4ncccc4-c4ccnc(N)n4)cc3)c3ccccc23)c1 shows EC50 equal to 2 nM
